Measured pIC50, listed per entry for reference.
- test.target: Histone deacetylase 1 (Homo sapiens)
- Sequence (Q13547 whole entry): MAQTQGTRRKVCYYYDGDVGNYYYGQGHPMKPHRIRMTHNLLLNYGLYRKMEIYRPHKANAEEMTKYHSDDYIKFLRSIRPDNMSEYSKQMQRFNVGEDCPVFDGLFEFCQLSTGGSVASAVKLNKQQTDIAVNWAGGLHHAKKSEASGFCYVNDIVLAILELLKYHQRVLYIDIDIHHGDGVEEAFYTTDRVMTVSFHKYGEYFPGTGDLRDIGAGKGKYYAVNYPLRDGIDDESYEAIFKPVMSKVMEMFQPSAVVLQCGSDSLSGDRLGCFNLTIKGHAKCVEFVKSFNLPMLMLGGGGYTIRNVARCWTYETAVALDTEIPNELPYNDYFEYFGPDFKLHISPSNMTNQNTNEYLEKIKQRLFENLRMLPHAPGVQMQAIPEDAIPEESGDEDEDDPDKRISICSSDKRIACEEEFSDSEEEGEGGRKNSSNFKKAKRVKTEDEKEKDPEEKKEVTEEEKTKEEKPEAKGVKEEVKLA
- assay.protocol: Inhibition of human recombinant HDAC1 using acetyllysine tripeptide coupled with 7-amino-4-methylcoumarin as substrate by fluorescence assay
pIC50: −log10 of the molar value.
property.label: pIC50

In [3]: df
Out[3]:
                          chemical_structure  readout_value
 0  O=C(CCCCCC(=O)N/N=C/c1ccc(-c2ccccn2)cc1)NO           8.64
 1  COc1cc(O)cc(OC)c1/C=N/NC(=O)CCCCCC(=O)NO           7.50
 2  O=C(CCCCCC(=O)N/N=C/c1ccc(-c2cncnc2)cc1)NO           8.49
 3  O=C(CCCCCC(=O)N/N=C/c1ccc(-c2ccncc2)cc1)NO           8.51
 4  O=C(CCCCCC(=O)N/N=C/c1ccc(-c2ccccc2)cc1)NO           8.85
 5  O=C(CCCCCC(=O)N/N=C/c1ccc(-c2cccnc2)cc1)NO           8.96
 6  O=C(CCCCCC(=O)N/N=C/c1ccc(-c2cccs2)cc1)NO           8.68
 7  O=C(CCCCC(=O)N/N=C/c1ccc(-c2ccccc2)cc1)NO           7.72
 8  Cc1ccccc1-c1ccc(/C=N/NC(=O)CCCCCC(=O)NO)cc1           8.10
 9  O=C(CCCCCCC(=O)N/N=C/c1ccc(-c2ccccc2)cc1)NO           9.15
10   COc1ccc(Br)c(/C=N/NC(=O)CCCCCC(=O)NO)c1           9.22
